Items are presented alongside their recorded residual activity.
Target: STK3 (human) (UniProt Q13188)
Sequence (Q13188 whole entry, looked up): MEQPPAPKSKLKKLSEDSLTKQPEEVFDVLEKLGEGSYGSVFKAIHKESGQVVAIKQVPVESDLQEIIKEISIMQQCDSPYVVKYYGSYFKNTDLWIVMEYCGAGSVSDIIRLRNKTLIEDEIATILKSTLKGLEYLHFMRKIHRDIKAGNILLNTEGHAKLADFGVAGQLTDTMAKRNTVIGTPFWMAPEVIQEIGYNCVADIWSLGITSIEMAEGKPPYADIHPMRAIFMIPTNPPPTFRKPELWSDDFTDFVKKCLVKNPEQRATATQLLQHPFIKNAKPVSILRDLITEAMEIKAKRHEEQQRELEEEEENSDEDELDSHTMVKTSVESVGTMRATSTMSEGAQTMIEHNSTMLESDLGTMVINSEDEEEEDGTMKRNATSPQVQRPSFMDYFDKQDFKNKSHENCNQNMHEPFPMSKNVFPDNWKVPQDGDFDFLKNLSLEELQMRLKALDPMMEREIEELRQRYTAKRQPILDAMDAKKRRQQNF
Experiment: radiometric filter-binding kinase assay, Kinase HotSpot
Conditions: compound 0.5 µM; ATP 10 µM
endpoint.name: residual activity (%)

- O=c1cc(N2CCNCC2)oc2c(-c3ccccc3)cccc12: 102
- O=C(Nc1ccc(Cl)cc1)c1ccccc1NCc1ccncc1: 94.2
- Nc1nc(Nc2ccc(S(N)(=O)=O)cc2)nn1C(=O)c1c(F)cccc1F: 34.3
- COc1cc2ncnc(Nc3ccc(F)c(Cl)c3)c2cc1OCCCN1CCOCC1: 93.6
- CCCNC(=O)Nc1ccc(Oc2ncnc3cc(OC)c(OC)cc23)cc1Cl: 85
- O=C(NC(NC(=S)Nc1ccc(F)c([N+](=O)[O-])c1)C(Cl)(Cl)Cl)C(c1ccccc1)c1ccccc1 (stereo not given): 107
- Cc1cc2ncc(-c3ccccc3)nc2cc1C: 98.9
- O=C1Nc2ccccc2/C1=C\c1c(Cl)[nH]c2ccccc12: 89.1
- O=C1Nc2cc(Br)ccc2/C1=C1/Nc2ccccc2/C1=N\O: 20.5
- O=C1Cc2c([nH]c3ccc([N+](=O)[O-])cc23)-c2ccccc2N1: 70.3
- CC(C)[C@H](CO)Nc1nc(Nc2cccc(Cl)c2)c2ncn(C(C)C)c2n1: 90.8
- COc1ccc(-c2cnc3c(-c4ccsc4)cnn3c2)cc1: 97.7
- CSc1nc(-c2ccc(F)cc2)c(-c2ccnc(NC(C)c3ccccc3)c2)[nH]1 (stereo not given): 88.8
- CS(=O)c1ccc(-c2nc(-c3ccc(F)cc3)c(-c3ccncc3)[nH]2)cc1 (stereo not given): 102
- Cc1ccc(NC(=O)c2ccc(CN3CCN(C)CC3)cc2)cc1Nc1nc(-c2cccnc2)cs1: 94.4
- COc1cc2nccc(Oc3ccc(NC(=S)NC(=O)c4ccccc4C)cc3)c2cc1OC: 86
- Nc1n[nH]c2nnc(-c3c(-c4ccccc4)nn4ccccc34)cc12: 102
- Oc1ccc(-c2nc(-c3ccc(F)cc3)c(-c3ccncc3)[nH]2)cc1: 105
- C#Cc1cccc(Nc2ncnc3cc(OCCOC)c(OCCOC)cc23)c1: 94.9
- Nc1nc(Nc2ccc(S(N)(=O)=O)cc2)nn1C(=S)Nc1c(F)cccc1F: 1.33
- O=c1cc(-c2cccc3c2Sc2ccccc2S3)oc(N2CCOCC2)c1: 101
- Clc1ccc(Nc2nnc(Cc3ccncc3)c3ccccc23)cc1: 92.1
- CC(C)(C)c1nc2c3ccc(F)cc3c3c(=O)[nH]ccc3c2[nH]1: 5.45
- CC(C)n1cnc2c(Nc3cccc(Cl)c3)nc(NCCO)nc21: 94.6
- NC(=O)c1ccc(N(C(N)=O)c2c(F)cccc2F)nc1-c1ccc(F)cc1F: 94.1

====

Molecular target: MAPK13 (human) (UniProt O15264)
Sequence (O15264 whole entry, looked up): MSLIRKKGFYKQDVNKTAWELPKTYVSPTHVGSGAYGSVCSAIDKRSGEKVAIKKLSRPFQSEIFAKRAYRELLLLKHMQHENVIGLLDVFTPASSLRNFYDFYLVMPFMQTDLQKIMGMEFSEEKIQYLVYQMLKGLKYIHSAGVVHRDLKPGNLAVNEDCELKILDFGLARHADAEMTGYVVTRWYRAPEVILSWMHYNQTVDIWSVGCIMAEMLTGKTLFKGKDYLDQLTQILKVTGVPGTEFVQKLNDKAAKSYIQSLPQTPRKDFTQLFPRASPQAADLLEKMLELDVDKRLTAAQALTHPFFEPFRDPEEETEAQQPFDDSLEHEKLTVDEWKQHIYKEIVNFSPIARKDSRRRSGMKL
Test: radiometric filter-binding kinase assay, Kinase HotSpot
Details: compound 0.5 µM; ATP 10 µM
Let's look at some molecules and their measured residual activity.
endpoint.name: residual activity (%)

* CCN1/C(=C/C(C)=O)Sc2ccc(OC)cc21 | 105
* CCCNC(=O)Nc1ccc(Oc2ncnc3cc(OC)c(OC)cc23)cc1Cl | 100
* O=C1Nc2cc(Br)ccc2/C1=C1/Nc2ccccc2/C1=N\O | 87.5
* COc1ccc(-c2cnc3c(-c4ccsc4)cnn3c2)cc1 | 93.5
* O=C1Nc2ccccc2/C1=C\c1c(Cl)[nH]c2ccccc12 | 98.9
* COc1cc2ncnc(Nc3ccc(F)c(Cl)c3)c2cc1OCCCN1CCOCC1 | 94.7
* CC(C)(C)c1nc2c3ccc(F)cc3c3c(=O)[nH]ccc3c2[nH]1 | 104
* Nc1nc(Nc2ccc(S(N)(=O)=O)cc2)nn1C(=O)c1c(F)cccc1F | 94.8
* O=c1cc(N2CCNCC2)oc2c(-c3ccccc3)cccc12 | 104
* Clc1ccc(Nc2nnc(Cc3ccncc3)c3ccccc23)cc1 | 88.9
* CC(C)n1cnc2c(Nc3cccc(Cl)c3)nc(NCCO)nc21 | 99
* Nc1n[nH]c2nnc(-c3c(-c4ccccc4)nn4ccccc34)cc12 | 101
* CS(=O)c1ccc(-c2nc(-c3ccc(F)cc3)c(-c3ccncc3)[nH]2)cc1 (stereo not given) | 106
* C#Cc1cccc(Nc2ncnc3cc(OCCOC)c(OCCOC)cc23)c1 | 95
* NC(=O)c1ccc(N(C(N)=O)c2c(F)cccc2F)nc1-c1ccc(F)cc1F | 94

====

Below is a list of entries, each paired with its recorded residual activity value.
Molecular target: PRKD1 (human)
Assay: radiometric filter-binding kinase assay, Kinase HotSpot
Conditions: compound 0.5 µM; ATP 10 µM
endpoint.name: residual activity

- Cc1ccc(NC(=O)c2ccc(CN3CCN(C)CC3)cc2)cc1Nc1nc(-c2cccnc2)cs1: 98.2%
- NC(=O)c1ccc(N(C(N)=O)c2c(F)cccc2F)nc1-c1ccc(F)cc1F: 97.7%
- Clc1ccc(Nc2nnc(Cc3ccncc3)c3ccccc23)cc1: 101%
- CC(C)[C@H](CO)Nc1nc(Nc2cccc(Cl)c2)c2ncn(C(C)C)c2n1: 96.9%
- O=C1Nc2ccccc2/C1=C\c1c(Cl)[nH]c2ccccc12: 89.5%
- CC(C)n1cnc2c(Nc3cccc(Cl)c3)nc(NCCO)nc21: 99.2%
- O=c1cc(N2CCNCC2)oc2c(-c3ccccc3)cccc12: 91.9%
- C#Cc1cccc(Nc2ncnc3cc(OCCOC)c(OCCOC)cc23)c1: 94.8%
- O=C(NC(NC(=S)Nc1ccc(F)c([N+](=O)[O-])c1)C(Cl)(Cl)Cl)C(c1ccccc1)c1ccccc1 (stereo not given): 96.9%
- Nc1nc(Nc2ccc(S(N)(=O)=O)cc2)nn1C(=S)Nc1c(F)cccc1F: 7.79%

====

Biological target: PRKCB2 (human) (UniProt P05771)
Sequence (P05771 whole entry, looked up): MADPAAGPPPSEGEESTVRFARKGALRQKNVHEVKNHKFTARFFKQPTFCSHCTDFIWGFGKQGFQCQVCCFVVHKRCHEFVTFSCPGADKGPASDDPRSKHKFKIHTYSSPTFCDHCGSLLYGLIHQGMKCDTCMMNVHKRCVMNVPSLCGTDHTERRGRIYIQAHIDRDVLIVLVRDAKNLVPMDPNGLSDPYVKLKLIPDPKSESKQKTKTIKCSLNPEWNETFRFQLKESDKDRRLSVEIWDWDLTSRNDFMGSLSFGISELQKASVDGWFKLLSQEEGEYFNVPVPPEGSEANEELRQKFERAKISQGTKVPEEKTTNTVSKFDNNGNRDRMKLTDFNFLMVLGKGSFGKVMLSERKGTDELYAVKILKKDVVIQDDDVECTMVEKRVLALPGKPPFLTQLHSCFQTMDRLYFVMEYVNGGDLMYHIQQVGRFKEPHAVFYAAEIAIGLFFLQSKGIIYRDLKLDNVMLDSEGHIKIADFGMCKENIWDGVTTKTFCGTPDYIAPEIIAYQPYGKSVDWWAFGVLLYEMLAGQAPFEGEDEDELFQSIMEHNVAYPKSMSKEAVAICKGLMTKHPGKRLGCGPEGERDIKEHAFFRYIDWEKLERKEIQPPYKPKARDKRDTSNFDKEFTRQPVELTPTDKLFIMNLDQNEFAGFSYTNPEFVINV
Assay: radiometric filter-binding kinase assay, Kinase HotSpot
Conditions: compound 0.5 µM; ATP 10 µM
A collection of molecules and their measured residual activity
endpoint.name: residual activity (%)

* O=C(Nc1ccc(Cl)cc1)c1ccccc1NCc1ccncc1 | 93.3
* CS(=O)c1ccc(-c2nc(-c3ccc(F)cc3)c(-c3ccncc3)[nH]2)cc1 (stereo unspecified) | 97.9
* NC(=O)c1ccc(N(C(N)=O)c2c(F)cccc2F)nc1-c1ccc(F)cc1F | 94.6
* Oc1ccc(-c2nc(-c3ccc(F)cc3)c(-c3ccncc3)[nH]2)cc1 | 75
* Clc1ccc(Nc2nnc(Cc3ccncc3)c3ccccc23)cc1 | 97.2
* O=C1Nc2cc(Br)ccc2/C1=C1/Nc2ccccc2/C1=N\O | 108
* CC(C)n1cnc2c(Nc3cccc(Cl)c3)nc(NCCO)nc21 | 99.7
* O=c1cc(-c2cccc3c2Sc2ccccc2S3)oc(N2CCOCC2)c1 | 105
* COc1cc2ncnc(Nc3ccc(F)c(Cl)c3)c2cc1OCCCN1CCOCC1 | 100
* Nc1nc(Nc2ccc(S(N)(=O)=O)cc2)nn1C(=O)c1c(F)cccc1F | 90.5
* O=C1Nc2ccccc2/C1=C\c1c(Cl)[nH]c2ccccc12 | 92.6

====

Known residual activity of a selection of compounds
Molecular target: NLK (human)
Assay: radiometric filter-binding kinase assay, Kinase HotSpot
Conditions: compound 0.5 µM; ATP 10 µM
endpoint.name: residual activity

* CCCNC(=O)Nc1ccc(Oc2ncnc3cc(OC)c(OC)cc23)cc1Cl | 90.7%
* Nc1nc(Nc2ccc(S(N)(=O)=O)cc2)nn1C(=O)c1c(F)cccc1F | 86%
* Cc1cc2ncc(-c3ccccc3)nc2cc1C | 92.8%
* Oc1ccc(-c2nc(-c3ccc(F)cc3)c(-c3ccncc3)[nH]2)cc1 | 46.1%
* O=C(NC(NC(=S)Nc1ccc(F)c([N+](=O)[O-])c1)C(Cl)(Cl)Cl)C(c1ccccc1)c1ccccc1 (configuration not stated) | 106%
* O=C1Cc2c([nH]c3ccc([N+](=O)[O-])cc23)-c2ccccc2N1 | 95.5%
* O=c1cc(N2CCNCC2)oc2c(-c3ccccc3)cccc12 | 98.8%
* O=c1cc(-c2cccc3c2Sc2ccccc2S3)oc(N2CCOCC2)c1 | 108%
* CC(C)[C@H](CO)Nc1nc(Nc2cccc(Cl)c2)c2ncn(C(C)C)c2n1 | 99.2%
* CS(=O)c1ccc(-c2nc(-c3ccc(F)cc3)c(-c3ccncc3)[nH]2)cc1 (configuration not stated) | 53.8%
* NC(=O)c1ccc(N(C(N)=O)c2c(F)cccc2F)nc1-c1ccc(F)cc1F | 15.8%
* CC(C)(C)c1nc2c3ccc(F)cc3c3c(=O)[nH]ccc3c2[nH]1 | 26.1%
* CCN1/C(=C/C(C)=O)Sc2ccc(OC)cc21 | 103%
* Nc1n[nH]c2nnc(-c3c(-c4ccccc4)nn4ccccc34)cc12 | 102%
* CC(C)n1cnc2c(Nc3cccc(Cl)c3)nc(NCCO)nc21 | 102%
* C#Cc1cccc(Nc2ncnc3cc(OCCOC)c(OCCOC)cc23)c1 | 103%
* CSc1nc(-c2ccc(F)cc2)c(-c2ccnc(NC(C)c3ccccc3)c2)[nH]1 (configuration not stated) | 30.7%
* Cc1ccc(NC(=O)c2ccc(CN3CCN(C)CC3)cc2)cc1Nc1nc(-c2cccnc2)cs1 | 106%
* O=C1Nc2ccccc2/C1=C\c1c(Cl)[nH]c2ccccc12 | 107%
* Clc1ccc(Nc2nnc(Cc3ccncc3)c3ccccc23)cc1 | 99.3%
* O=C1Nc2cc(Br)ccc2/C1=C1/Nc2ccccc2/C1=N\O | 101%
* Nc1nc(Nc2ccc(S(N)(=O)=O)cc2)nn1C(=S)Nc1c(F)cccc1F | 45.1%
